Target: 5-LO (Homo sapiens, UniProt P09917)
Construct: made in house; host or cells: insect cells (crude lysate)
Sequence (P09917 whole entry, species assumed): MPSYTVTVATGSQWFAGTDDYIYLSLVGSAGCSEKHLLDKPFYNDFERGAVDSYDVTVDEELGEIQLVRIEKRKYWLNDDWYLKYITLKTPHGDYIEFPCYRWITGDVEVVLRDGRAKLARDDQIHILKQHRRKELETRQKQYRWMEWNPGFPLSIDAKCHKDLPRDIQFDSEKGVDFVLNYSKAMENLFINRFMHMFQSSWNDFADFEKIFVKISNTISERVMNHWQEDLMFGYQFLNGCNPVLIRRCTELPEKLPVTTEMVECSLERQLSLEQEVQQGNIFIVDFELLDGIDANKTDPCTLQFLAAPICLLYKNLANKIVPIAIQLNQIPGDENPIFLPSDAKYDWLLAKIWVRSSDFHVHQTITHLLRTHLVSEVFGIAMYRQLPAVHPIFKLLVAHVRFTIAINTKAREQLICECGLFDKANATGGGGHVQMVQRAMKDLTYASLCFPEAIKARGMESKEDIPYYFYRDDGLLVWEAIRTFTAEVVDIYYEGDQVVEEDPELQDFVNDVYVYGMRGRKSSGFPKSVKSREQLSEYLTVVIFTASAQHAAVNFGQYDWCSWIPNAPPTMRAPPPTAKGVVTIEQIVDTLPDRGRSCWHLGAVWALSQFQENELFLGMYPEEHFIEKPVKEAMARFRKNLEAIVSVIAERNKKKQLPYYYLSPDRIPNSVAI
Assay: 5-Lipoxygenase enzyme assay, bioassay using FOX reagent
Assay type: biochemical
Conditions: test compound 1 μM; lysate from 5-LO expressed insect cells; arachidonic acid 40 μM
Description: 1. 5-Lipoxygenase enzyme assay 1) Bioassay Using FOX Reagent Each test compound (final concentration=1 μM) was added to a lysate (7 μg) obtained from 5-LO expressed insect cells and reaction was performed at room temperature for 3 minutes. […] 100 μL of a FOX reagent (sulfuric acid 25 mM, xylenol orange 100 μM, FeSO4 100 μM, methanol/water=9:1) was added thereto and then, after 5 minutes, absorbance was measured at 575 nm.
Listed here: items and their measured 5-LO enzyme assay (% inhibition, at 1 μM).
Endpoint label: 5-LO enzyme assay (% inhibition, at 1 μM) (%)

* CN(CC1(C)C=Cc2cc(NCc3ccc(F)cc3)ccc2O1)S(=O)(=O)c1ccccc1 (centres unmarked) | 87
* COc1ccc(CNc2ccc3c(c2)C=CC(C)(CN(C)S(=O)(=O)Cc2ccccc2)O3)cc1 (centres unmarked) | 61
* COc1ccc(S(=O)(=O)N(C)CC2(C)C=Cc3cc(NCc4ccc(C)s4)ccc3O2)cc1 (centres unmarked) | 45
* CN(CC1(C)C=Cc2cc(NCc3ccc(C#N)cc3)ccc2O1)S(=O)(=O)c1ccccc1 (centres unmarked) | 80
* Cc1ccc(CNc2ccc3c(c2)C=CC(C)(CN(C)S(=O)(=O)c2ccc(F)cc2)O3)s1 (centres unmarked) | 79
* COc1ccc(S(=O)(=O)N(C)CC2(C)C=Cc3cc(NCc4ccsc4)ccc3O2)cc1 (centres unmarked) | 48
* COc1ccc(CNc2ccc3c(c2)C=CC(C)(CN(C)S(=O)(=O)c2ccccc2)O3)cc1 (centres unmarked) | 86
* CCCS(=O)(=O)N(C)CC1(C)C=Cc2cc(NCc3ccc(OC)cc3)ccc2O1 (centres unmarked) | 73

====

Target: 5-LO (Homo sapiens)
Construct: made in house; host or cells: insect cells (crude lysate)
Assay: 5-Lipoxygenase enzyme assay, bioassay using FOX reagent
Assay type: biochemical
Conditions: test compound 1 μM; lysate from 5-LO expressed insect cells; arachidonic acid 40 μM
Endpoint label: 5-LO enzyme assay (% inhibition, at 1 μM) (%)

• Cc1cc2c(cc1NCc1cccs1)C=CC(C)(CN(C)S(=O)(=O)c1ccccc1)O2 (stereo not shown) = 80
• COc1ccc(CNc2ccc3c(c2)C=CC(C)(CN(C)S(=O)(=O)c2ccc(F)cc2)O3)cc1 (stereo not shown) = 67
• COc1ccc(CNc2ccc3c(c2)C=CC(C)(CN(C)S(=O)(=O)c2ccc(Cl)cc2)O3)cc1 (stereo not shown) = 70
• CN(CC1(C)C=Cc2cc(NCc3ccsc3)ccc2O1)S(=O)(=O)c1ccc(C(C)(C)C)cc1 (stereo not shown) = 47
• Cc1cc2c(cc1NCc1ccc(C#N)cc1)C=CC(C)(CN(C)S(=O)(=O)c1ccccc1)O2 (stereo not shown) = 79
• CN(CC1(C)C=Cc2cc(NCc3cccc(F)c3)ccc2O1)S(=O)(=O)c1ccccc1 (stereo not shown) = 73
• CCOC(OCC)c1ccc(CNc2ccc3c(c2)C=CC(C)(CN(C)S(=O)(=O)c2ccc(C)cc2)O3)cc1 (stereo not shown) = 63
